Molecular target: Recombinant BRD4 (44-168) protein (Homo sapiens (Human), UniProt O60885)
Assay: BRD4-H4KAc4 binding assay (amplified luminescence proximity homogeneous assay, AlphaScreen)
Conditions: 10 uM
Reported values of inhibition at 10 µM for individual entries

MOLECULE: Cc1sc2c(c1C)C(c1ccccc1)=NN(Cc1cccnc1F)c1nnc(C)n1-2 [Example 90]
inhibition at 10 µM: 100%

MOLECULE: Cc1sc2c(c1C)C(c1ccc(Cl)cc1)=NN(C(=O)NCc1ccccc1)c1nnc(C)n1-2 [Example 35]
inhibition at 10 µM: 6.6%

MOLECULE: COc1ccc(CN2N=C(c3ccc(Cl)cc3)c3cccnc3-n3c(C)nnc32)cc1 [Example 67]
inhibition at 10 µM: 100%

MOLECULE: Cc1sc2c(c1C)C(c1ccc(Cl)cc1)=NN(CCCc1ccccc1)c1nnc(C)n1-2 [Example 20]
inhibition at 10 µM: 82.2%

MOLECULE: COc1cccc(CN2N=C(c3ccc(Cl)cc3)c3ccsc3-n3c(C)nnc32)c1 [Example 64]
inhibition at 10 µM: 100%

MOLECULE: CCOc1ncccc1CN1N=C(c2ccc(Cl)cc2)c2c(sc(C)c2C)-n2c(C)nnc21 [Example 87]
inhibition at 10 µM: 100%

MOLECULE: Cc1nnc2n1-c1sccc1C(c1ccc(Cl)cc1)=NN2Cc1ccccn1 [Example 62]
inhibition at 10 µM: 100%

MOLECULE: COc1ccc(CN2N=C(c3ccccc3)c3c(sc(C)c3C)-n3c(C)nnc32)cc1 [Example 28]
inhibition at 10 µM: 101%

MOLECULE: Cc1sc2c(c1C)C(c1ccc(Cl)cc1)=NN(Cc1cc(F)cnc1F)c1nnc(C)n1-2 [Example 88]
inhibition at 10 µM: 100%

MOLECULE: Cc1sc2c(c1C)C(c1ccccc1Cl)=NN(Cc1cccnc1)c1nnc(C)n1-2 [Example 72]
inhibition at 10 µM: 100%

MOLECULE: Cc1sc2c(c1C)C(c1ccc(Cl)cc1)=NN(Cc1ccccc1Cl)c1nnc(C)n1-2 [Example 10]
inhibition at 10 µM: 100%

MOLECULE: Cc1sc2c(c1C)C(c1ccc(Cl)cc1)=NN(Cc1cccnc1C(=O)O)c1nnc(C)n1-2 [Example 84]
inhibition at 10 µM: 100%

MOLECULE: COc1ccc(CN2N=C(c3ccc(Cl)cc3)c3c(C)csc3-n3c(C)nnc32)cc1 [Example 66]
inhibition at 10 µM: 100%

MOLECULE: Cc1sc2c(c1C)C(c1ccc(Cl)cc1)=NN(Cc1cccnc1C#N)c1nnc(C)n1-2 [Example 77]
inhibition at 10 µM: 100%

MOLECULE: Cc1sc2c(c1C)C(c1ccc(Cl)cc1)=NN(Cc1cccc(F)c1)c1nnc(C)n1-2 [Example 9]
inhibition at 10 µM: 100%

MOLECULE: Cc1cccc(CN2N=C(c3ccc(Cl)cc3)c3c(sc(C)c3C)-n3c(C)nnc32)c1 [Example 12]
inhibition at 10 µM: 100%

MOLECULE: Cc1sc2c(c1C)C(c1ccc(Cl)cc1)=NN(Cc1ccc(F)nc1)c1nnc(C)n1-2 [Example 26]
inhibition at 10 µM: 100%

MOLECULE: Cc1sc2c(c1C)C(c1ccc(Cl)cc1)=NN(Cc1cncc(Cl)c1)c1nnc(C)n1-2 [Example 39]
inhibition at 10 µM: 100%

MOLECULE: Cc1sc2c(c1C)C(c1ccc(Cl)cc1)=NN(Cc1cnccc1Cl)c1nnc(C)n1-2 [Example 43]
inhibition at 10 µM: 100%

MOLECULE: Cc1sc2c(c1C)C(c1ccc(Cl)cc1)=NN(Cc1ncccc1F)c1nnc(C)n1-2 [Example 23]
inhibition at 10 µM: 100%

MOLECULE: Cc1sc2c(c1C)C(c1ccc(Cl)cc1)=NN(Cc1cccnc1Br)c1nnc(C)n1-2 [Example 79]
inhibition at 10 µM: 100%

MOLECULE: Cc1sc2c(c1C)C(c1ccc(Cl)cc1)=NN(Cc1cccc(C(F)(F)F)c1)c1nnc(C)n1-2 [Example 18]
inhibition at 10 µM: 100%

MOLECULE: Cc1sc2c(c1C)C(c1ccc(Cl)cc1)=NN(Cc1cccc(N(C)C)c1)c1nnc(C)n1-2 [Example 55]
inhibition at 10 µM: 100%

MOLECULE: COc1ccccc1C1=NN(Cc2cccnc2)c2nnc(C)n2-c2sc(C)c(C)c21 [Example 74]
inhibition at 10 µM: 100%

MOLECULE: Cc1sc2c(c1C)C(c1ccc(Cl)cc1)=NN(Cc1cc(Cl)ccn1)c1nnc(C)n1-2 [Example 40]
inhibition at 10 µM: 100%

MOLECULE: COc1ccc(CN2N=C(c3ccc(Cl)cc3)c3c(sc(C)c3C)-n3c(C)nnc32)nc1 [Example 47]
inhibition at 10 µM: 100%

MOLECULE: Cc1sc2c(c1C)C(c1ccc(Cl)cc1)=NN(Cc1ccnc(N)c1)c1nnc(C)n1-2 [Example 57]
inhibition at 10 µM: 100%

MOLECULE: CC(=O)Nc1ncccc1CN1N=C(c2ccc(Cl)cc2)c2c(sc(C)c2C)-n2c(C)nnc21 [Example 82]
inhibition at 10 µM: 100%

MOLECULE: Cc1sc2c(c1C)C(c1ccc(Cl)cc1)=NN(CCc1c[nH]c3ccccc13)c1nnc(C)n1-2 [Example 44]
inhibition at 10 µM: 99.3%

MOLECULE: CC(=O)Nc1ccc(C2=NN(Cc3cccnc3)c3nnc(C)n3-c3sc(C)c(C)c32)cc1 [Example 71]
inhibition at 10 µM: 100%

MOLECULE: Cc1sc2c(c1C)C(c1ccc(Cl)cc1)=NN(Cc1cccc(F)n1)c1nnc(C)n1-2 [Example 21]
inhibition at 10 µM: 100%

MOLECULE: Cc1sc2c(c1C)C(c1ccc([N+](=O)[O-])cc1)=NN(Cc1cccnc1)c1nnc(C)n1-2 [Example 70]
inhibition at 10 µM: 100%

MOLECULE: Cc1sc2c(c1C)C(c1ccc(Cl)cc1)=NN(Cc1ccccc1F)c1nnc(C)n1-2 [Example 8]
inhibition at 10 µM: 100%

* * *

Biological target: Recombinant BRD4 (44-168) protein (Homo sapiens (Human), UniProt O60885)
Test: BRD4-H4KAc4 binding assay (amplified luminescence proximity homogeneous assay, AlphaScreen)
Details: 10 uM
Experimental: In order to evaluate BRD4 inhibitory activity of the present compounds, BRD4-H4KAc4 binding assay was carried out by an amplified luminescence proximity homogeneous assay. The specific method is described below. […] The BRD4 inhibition rate (%) was calculated by the following equation using Microsoft EXCEL 2010. […]

STRUCTURE_AS_SMILES: Cc1nnc2n1-c1sccc1C(c1ccc(Cl)cc1)=NN2Cc1ccncc1
QUANTITY_UNIT: %
inhibition at 10 µM: 100
--
STRUCTURE_AS_SMILES: Cc1sc2c(c1C)C(c1ccc(Cl)cc1)=NNc1nnc(C)n1-2
QUANTITY_UNIT: %
inhibition at 10 µM: 99.9
--
STRUCTURE_AS_SMILES: Cc1sc2c(c1C)C(c1ccc(Cl)cc1)=NN(Cc1ncccc1Cl)c1nnc(C)n1-2
QUANTITY_UNIT: %
inhibition at 10 µM: 100
--
STRUCTURE_AS_SMILES: Cc1nnc2n1-c1sccc1C(c1ccc(Cl)cc1)=NN2Cc1ccccc1
QUANTITY_UNIT: %
inhibition at 10 µM: 100
--
STRUCTURE_AS_SMILES: COc1ccncc1CN1N=C(c2ccc(Cl)cc2)c2c(sc(C)c2C)-n2c(C)nnc21
QUANTITY_UNIT: %
inhibition at 10 µM: 100
--
STRUCTURE_AS_SMILES: COc1ncc(F)cc1CN1N=C(c2ccc(Cl)cc2)c2c(sc(C)c2C)-n2c(C)nnc21
QUANTITY_UNIT: %
inhibition at 10 µM: 100
--
STRUCTURE_AS_SMILES: COc1ccc(CN2N=C(c3ccc(Cl)cc3)c3c(sc(C)c3C)-n3c(C)nnc32)cc1
QUANTITY_UNIT: %
inhibition at 10 µM: 100
--
STRUCTURE_AS_SMILES: Cc1sc2c(c1C)C(c1ccc(Cl)cc1)=NN(Cc1cccs1)c1nnc(C)n1-2
QUANTITY_UNIT: %
inhibition at 10 µM: 99.9
--
STRUCTURE_AS_SMILES: CC(=O)Nc1cc(CN2N=C(c3ccc(Cl)cc3)c3c(sc(C)c3C)-n3c(C)nnc32)ccn1
QUANTITY_UNIT: %
inhibition at 10 µM: 100
--
STRUCTURE_AS_SMILES: Cc1ccccc1CN1N=C(c2ccc(Cl)cc2)c2c(sc(C)c2C)-n2c(C)nnc21
QUANTITY_UNIT: %
inhibition at 10 µM: 100
--
STRUCTURE_AS_SMILES: Cc1sc2c(c1C)C(c1ccc(Cl)cc1)=NN(Cc1cccc(O)c1)c1nnc(C)n1-2
QUANTITY_UNIT: %
inhibition at 10 µM: 100
--
STRUCTURE_AS_SMILES: COc1ccc(CN2N=C(c3ccc(Cl)cc3)c3c(sc(C)c3C)-n3c(CO)nnc32)cc1
QUANTITY_UNIT: %
inhibition at 10 µM: 19.2
--
STRUCTURE_AS_SMILES: Cc1nnc2n1-c1sccc1C(c1ccc(Cl)cc1)=NN2Cc1cccnc1
QUANTITY_UNIT: %
inhibition at 10 µM: 100
--
STRUCTURE_AS_SMILES: Cc1sc2c(c1C)C(c1ccccc1)=NN(Cc1ccccn1)c1nnc(C)n1-2
QUANTITY_UNIT: %
inhibition at 10 µM: 97.8
--
STRUCTURE_AS_SMILES: COc1ccnc(CN2N=C(c3ccc(Cl)cc3)c3c(sc(C)c3C)-n3c(C)nnc32)c1
QUANTITY_UNIT: %
inhibition at 10 µM: 100
--
STRUCTURE_AS_SMILES: Cc1sc2c(c1C)C(c1ccc(Cl)cc1)=NN(C(=O)Nc1ccccc1)c1nnc(C)n1-2
QUANTITY_UNIT: %
inhibition at 10 µM: 22.3
--
STRUCTURE_AS_SMILES: Cc1sc2c(c1C)C(c1ccc(Cl)cc1)=NN(Cc1ccc(C(C)(C)C)cc1)c1nnc(C)n1-2
QUANTITY_UNIT: %
inhibition at 10 µM: 99.8
